# Test system: HEK-293T
# measurement-notes: Incucyte cell viability with HEK293T; further: unitless GR value; below 1 slowed growth and below 0 cell loss
# Format: toxicity, cell-based
# assay-context: human, 6 h, 10 µM, compound concentration 10 uM, replicate number 1
readout-type: Growth Rate
Respond with the number and no other words.

Growth Rate in this record for O=C(NC1CCNCC1)c1n[nH]cc1NC(=O)c1c(Cl)cccc1Cl : -0.3

Growth Rate in this record for CC(C)(C)c1ccc(-c2coc3ccc(-c4cn[nH]c4)nc23)cc1 : 0.67

Growth Rate in this record for CN1CCN(c2ccc(/C=C(\C#N)c3ccccc3Br)cc2)CC1.Cl.Cl : 0

Growth Rate in this record for COC[C@@H](CC(C)C)NC1=N/C(=C\c2ccc3ncsc3c2)C(=O)N1C : 0.37

Growth Rate in this record for CCC(C)(C)NC(=NC#N)Nc1cccnc1 : 0.19

Growth Rate in this record for Cc1ccccc1Oc1cc(-n2c(=O)cc(C(F)(F)F)[nH]c2=O)c2ccccc2c1Cl : 0.59

Growth Rate in this record for CC[C@H](Nc1c(C#N)c(-c2ccc(-c3cccc(C)c3F)cc2)nc2cnccc12)C(=O)O : 0.67

Growth Rate in this record for CC(C)C[C@H](NC(=O)c1cc2ccccc2s1)C(=O)N1CCN(C(=O)[C@H](CO)NS(=O)(=O)c2ccc(Cl)cc2Cl)CC1 : -0.15

Growth Rate in this record for Cl.Cl.N#Cc1ccc(O[C@@H]2c3ccccc3C[C@H]2N2CCC[C@@H](N)C2)c(Cl)c1 : -0.97
